Target: mutant form of the human GPR119 receptor (Homo sapiens, UniProt Q8TDV5, S329A/T327A)
Sequence (Q8TDV5 with tags, fused parts or gaps T327A/S329A): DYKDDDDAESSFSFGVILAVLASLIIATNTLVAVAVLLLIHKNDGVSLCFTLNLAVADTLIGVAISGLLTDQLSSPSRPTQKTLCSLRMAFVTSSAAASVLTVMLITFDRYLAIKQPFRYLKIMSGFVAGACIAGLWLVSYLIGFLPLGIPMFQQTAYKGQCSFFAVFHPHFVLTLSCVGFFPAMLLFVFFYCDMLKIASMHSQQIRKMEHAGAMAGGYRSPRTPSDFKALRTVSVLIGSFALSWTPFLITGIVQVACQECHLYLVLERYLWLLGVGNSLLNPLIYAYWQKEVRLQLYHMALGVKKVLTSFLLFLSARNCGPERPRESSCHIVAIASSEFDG
Experiment: LANCE cAMP-384 assay in HEK293 cells stably expressing a mutant form of the human GPR119 receptor
Settings: mutant human GPR119, LANCE cAMP-384 Kit, 20 min at 37° C., read-out: EC50 (cAMP accumulation)
REPORTED_METRIC: log10(EC50) (log10 of the value in nM)
Answers are given as log10 of EC50 in nM.

As a guide, the following entries are already answered.
CC(C)OC(=O)N1CC[C@H](N(C(=O)c2cnc(-n3cncn3)cn2)C2CC2)[C@H](F)C1 ... 2.90
CC(C)OC(=O)N1CCC(N(C(=O)c2cnc(-n3cncn3)cn2)C2CC2)CC1 ... 2.64

Now for the molecule whose log10(EC50) we want.
Input line: Param item = `Cc1nccn1-c1ncc(C(=O)N(C2CC2)[C@@H]2CCN(C(=O)OC(C)C)C[C@@H]2F)cn1` ; retrieve measured log10(EC50).
Output line: 1.65

----------
Biological target: human GPR119 (Homo sapiens)
Construct: expression vector for human GPR119 cDNA (Acc. No. NP_848566); Min-6/hGPR119
Sequence (Q8TDV5 whole entry): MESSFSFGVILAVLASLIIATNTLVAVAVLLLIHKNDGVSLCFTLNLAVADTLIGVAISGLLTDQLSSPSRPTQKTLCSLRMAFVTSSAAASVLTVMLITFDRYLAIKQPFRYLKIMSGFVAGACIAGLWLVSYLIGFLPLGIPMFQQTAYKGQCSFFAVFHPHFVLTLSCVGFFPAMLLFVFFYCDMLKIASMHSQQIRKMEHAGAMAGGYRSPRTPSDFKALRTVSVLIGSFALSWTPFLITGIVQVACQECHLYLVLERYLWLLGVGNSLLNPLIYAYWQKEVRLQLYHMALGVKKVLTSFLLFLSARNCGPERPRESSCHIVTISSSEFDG
Assay: AlphaScreen cAMP assay in MIN6 cells stably transfected with human GPR119
Details: Min-6/hGPR119 cells, 45 min at room temperature
Here the recorded EC50 is given for each entry.
Give just the number in nM; leave the unit off.

Answered examples (3):
CC(C)(C)OC(=O)N1CCC(N(C(=O)c2cnc(-c3ccc(C(=O)NC4CCCOC4)c(F)c3)nc2)C2CC2)CC1 (stereo not shown) ... 168
CC(C)(C)OC(=O)N1CCC(N(C(=O)c2cnc(-c3ccc(CC(=O)N4CCC[C@H]4C#N)cc3)nc2)C2CC2)CC1 ... 418
CC(C)(C)OC(=O)N1CCC(N(C(=O)c2cnc(-c3ccc(C(=O)Nc4ccc(CO)cc4)c(F)c3)nc2)C2CC2)CC1 ... 180

Please examine the following record next.
Input line: Recorded EC50 for CC(C)(C)OC(=O)N1CCC(N(C(=O)c2cnc(-c3ccc(C(=O)NCC4CCCO4)cc3)nc2)C2CC2)CC1 (stereo not shown) , please?
Output line: 237

----------
Target: human GPR119 (Homo sapiens)
Construct: expression vector for human GPR119 cDNA (Acc. No. NP_848566); expressed in transfected cells; Min-6/hGPR119
Assay: AlphaScreen cAMP assay in MIN6 cells stably transfected with human GPR119
Assay type: cell-based
Conditions: Min-6/hGPR119 cells, 45 min at room temperature
REPORTED_METRIC: pEC50
# reply with the number alone; pEC50 is -log10 of concentration in mol/L

Input line: Give human GPR119 (Homo sapiens) pEC50 for `Cc1nc(CNC(=O)c2ccc(-c3ncc(C(=O)N(C4CC4)C4CCN(C(=O)OC(C)(C)C)CC4)cn3)cc2)cs1`
Output line: 6.74

Input line: Query `CC(C)(C)OC(=O)N1CCC(N(C(=O)c2ncc(-c3ccc(S(C)(=O)=O)cc3)cn2)C2CC2)CC1` next
Output line: 6.26

Input line: Same again, this time with CN(CC1CCOC1)C(=O)c1ccc(-c2ncc(C(=O)N(C3CC3)C3CCN(C(=O)OC(C)(C)C)CC3)cn2)cc1F (stereo not shown)
Output line: 6.79

Input line: Proceed to `CC(C)(C)OC(=O)N1CCC(N(C(=O)c2cnc(-c3ccc(C(=O)NCc4cccnn4)c(F)c3)nc2)C2CC2)CC1`
Output line: 6.37

Input line: Also `CC(C)(C)OC(=O)N1CCC(N(C(=O)c2cnc(-c3ccc(C(=O)NCc4cccnc4)c(F)c3)nc2)C2CC2)CC1` ?
Output line: 6.76

Input line: What do you have for `CC(C)OC(=O)N1CCC(N(C(=O)c2cnc(-n3ccnc3)nc2)C2CC2)CC1` ?
Output line: 6.85
